Tested on: LOX IMVI melanoma
Test: NCI-60 one-dose screen, 48 h
Conditions: 10 µM unless noted
Description: Growth inhibition of the LOX IMVI human tumor cell line is measured as a screen for anti-cancer activity. Cells are grown in 96 well plates and exposed to the test compound for 48 hours. Compounds are tested at a single concentration, which is 10^-5 M for most compounds. The reported endpoint is percent growth (GI% or GIPRCNT), where numbers from 0 - 100% represent growth inhibition, and numbers from -100% - 0 represent cell death. For example, a value of 40 represents 60% growth inhibition. […]
Compounds without any hit were thinned out: in the full panel of roughly 83,000, 20% have a hit. Activity calls are given as the source filed them. Rule for the calls: active = growth percent below 10; inactive = the rest.
Outcome codes: Y (active), N (inactive)

* CCN1C/C(=N\S(=O)(=O)c2ccccc2)N(CC)C1=S | N
* O=C(Nc1cccc(-c2nc(-c3ccc(NC(=O)c4cccnc4)cc3Cl)no2)c1)Nc1ccc(NC(=O)C2CC2)c(C(F)(F)F)c1 | Y
* Cc1ccc(NC(=O)c2ccc(CN3CCN(C)CC3)c(C(F)(F)F)c2)cc1Oc1ccc(-c2[nH]nc3ncnc(N)c23)cc1 | Y
* CC(=O)NC(C)(C)C(=O)N1CCC[C@H]1C(=O)NC(C)(C)C(=O)N[C@@H](C)C(=O)NC(C)(C)C(=O)N[C@@H](C)C(=O)N[C@@H](CCC(N)=O)C(=O)NC(C)(C)C(=O)N[C@H](C(=O)NC(C)(C)C(=O)NCC(=O)N[C@@H](CC(C)C)C(=O)NC(C)(C)C(=O)N1CCC[C@H]1C(=O)N[C@H](C(=O)NC(C)(C)C(=O)NC(C)(C)C(=O)N[C@@H](CCC(N)=O)C(=O)N[C@@H](CCC(N)=O)C(=O)N[C@H](CO)Cc1ccccc1)C(C)C)C(C)C | N
* CN(C)c1ncc(/C=C2\SC(=S)N(Cc3ccccc3Cl)C2=O)s1 | N
* Cc1nn(-c2ccc(Br)cc2)c2nc(CCl)[nH]c(=O)c12 | Y
* COc1ccccc1/C=C/C=N/NC1=NC2C(S1)N(C)C(=O)N2c1ccccc1 (stereo unspecified) | Y
* CCN1C(=O)N(CC)C2C1NN=C1SC(c3ccccc3)=CC(=O)N12 (stereo unspecified) | N
* O=C1NC(=O)/C(=C/c2ccc(OCc3cc4ccccc4nc3Cl)cc2)S1 | N
* COc1cc2cc(Oc3ccc(NC(=O)Nc4cc(C(F)(F)F)cc(C(F)(F)F)c4)cc3)c(C)nc2cc1OCCN(C)C | N
* COC[C@@]1(C)CC[C@]2(C)CC[C@]3(C)C(=CC[C@@H]4[C@@]5(C)CCCNC(C)(C)[C@@H]5CC[C@]43C)C2C1 (stereo partly specified) | N
* Oc1ccc(-c2nnc(SCc3ccc(O)c4ncccc34)o2)cc1 | Y
* COc1ccc(-c2nc3cc(Cl)c(Cl)cc3n2CC(=O)N=Nc2c(O)[nH]c3ccc(Cl)cc23)cc1 | Y
* C/C(=N\NC(=O)CSc1nc2sc3c(c2c(=O)n1-c1ccccc1)CCC(C)C3)c1ccc(Cl)cc1 (stereo unspecified) | Y
* CCCCOc1ccc(S(=O)(=O)N2CCN(c3nccc(N4CCOCC4)n3)CC2)cc1 | Y
* COc1ccc2c(c1)c(-c1nn3c(=O)cc(-c4ccccc4)nc3s1)cn2C | N

----------
Tested on: TK-10 renal
Experiment: NCI-60 one-dose screen, 48 h (100 = growth as untreated, 0 = no growth, -100 = all killed)
Conditions: 10 µM unless noted
The panel holds about 83,000 compounds, 20% with a hit somewhere; the sample as a whole holds those more often. Activity calls are given as the source filed them. How the source made its calls: active means growth percent below 10; inactive means the rest.
ASSAY_METRIC: growth

• COc1ccc([C@H]2[C@H](O)C(=O)N2c2cc(OC)c(OC)c(OC)c2)cc1Cl = 85.4% (inactive)
• Cc1cc(O)c2c(c1)C(=O)C(c1c(C)cc3c(c1O)C(=O)C=CC3=O)=CC2=O = 14.2% (inactive)
• COc1ccc(OC)c([C@H]2c3[nH]c4ccccc4c3C[C@H]3C(=O)N(CCCCCCC(=O)NO)CC(=O)N23)c1 = 101% (inactive)
• O=C(Nc1ccc(-c2nc(-c3cccc(O)c3)c(-c3ccnc(Br)c3)[nH]2)cc1)c1ccccc1 = 49% (inactive)
• O=C1c2c(c3c4cccnc4[nH]c3c3ccc4ccccc4c23)C(=O)N1CCN1CCOCC1 = 112% (inactive)
• CCN1C(=O)N(CC)C2SC(N/N=C/C=C/c3ccccc3OC)=NC21 (centres undefined) = 52.1% (inactive)
• CCCCCc1ccc(S(=O)(=O)N(C(C)=O)c2cccc(-c3csc(N(CCN4CCN(C)CC4)C(C)=O)n3)c2)cc1 = 99.2% (inactive)
• O=C(Nc1cc(F)cc2cccnc12)c1cnc(N2CCOCC2)cn1 = 61.6% (inactive)
• CC(=O)Oc1ccc(CCN2C(=O)CSC2=S)cc1 = 57.9% (inactive)
• C=CCn1c(SCC(=O)Nc2cccc(C(=O)/C=C/c3ccc(Cl)cc3)c2)nc2ccccc2c1=O = 96.4% (inactive)
• Cc1cc(=O)n2nc(-c3cn(C)c4ccc(Cl)cc34)sc2n1 = 138% (inactive)
• Cc1ccc(NC(=O)c2ccc(CN3CCN(C)CC3)c(C(F)(F)F)c2)cc1Oc1ccc(-c2[nH]nc3ncnc(N)c23)cc1 = 119% (inactive)
• CS(=O)(=O)c1nccc(-c2c(-c3ccc(F)c(OCCc4ccccc4)c3)nc3sccn23)n1 = 100% (inactive)
• COc1ccc(Cn2cc3c(c2-c2cc(OC)c(OC)c(OC)c2)CCCc2cnoc2-3)cc1N = 78.9% (inactive)
• Nc1c(C(=O)c2ccccc2)sc2nc(-c3cnccn3)cc(-c3cccs3)c12 = 106% (inactive)
• O=C1Nc2cc(OC(F)(F)F)ccc2Oc2ccc(-c3ccnc(N4CCNCC4)c3)cc21 = 27.8% (inactive)
• CCOC(=O)c1c(NCC(=O)Nc2cccc(Cl)c2)sc2c1CCCC2 = 146% (inactive)
• CCOC(=O)C1=C(C)Nc2nc3ccccc3n2C1c1cccc(Br)c1 (centres undefined) = 113% (inactive)
• COC(=O)c1c(C(=O)OC)c2n(CC(=O)Nc3cccc4cccnc34)c3ccccc3n2c1C(=O)c1ccc(C)cc1 = 108% (inactive)

----------
Test system: COLO 205 colon
Assay: NCI-60 one-dose screen, 48 h
Settings: 10 µM unless noted
This is part of a sample that, as a whole, favours compounds with a hit. Of some 83,000 tested, about 20% had one in any assay. Activity calls are given as the source filed them. The calls were made as follows: active = growth percent below 10; inactive = the rest.
Possible outcomes: active, inactive

* CCOc1c(C#N)c(Nc2ccc(S(N)(=O)=O)cc2)c(C#N)c2nnc(C)n12 | inactive
* O=C(CSc1nnc(-c2ccc(Cl)cc2)n1-c1ccccc1)Nc1ccc(F)cc1 | inactive
* CC[C@@](C)(NC(=O)C(C)(C)NC(=O)[C@@H](NC(=O)[C@@H]1CCCN1C(=O)C(C)(C)NC(=O)[C@H](CC(C)C)NC(=O)CNC(=O)C(C)(C)NC(=O)[C@@H](NC(=O)C(C)(C)NC(=O)[C@H](CCC(N)=O)NC(=O)[C@H](C)NC(=O)C(C)(C)NC(=O)[C@H](C)NC(=O)C(C)(C)NC(=O)[C@@H]1CCCN1C(=O)C(C)(C)NC(C)=O)C(C)C)C(C)C)C(=O)N[C@@H](CCC(N)=O)C(=O)N[C@@H](CCC(N)=O)C(=O)N[C@H](CO)Cc1ccccc1 | active
* Cc1ccc(Nc2ncnc3c2c(C)nn3-c2ccc([N+](=O)[O-])cc2)cc1 | inactive
* CCNCc1c(-c2cccc(OC(F)(F)F)c2)[nH]c2ccc(N3CCCC3)cc2c1=O | inactive
* O=C(CN1CCN(c2cc(=O)n(-c3ccccc3)c3ccccc23)CC1)Nc1ccc([N+](=O)[O-])cc1 | inactive
* CNC(=O)c1cc(Oc2ccc3nc(NC(=O)c4ccc(CN5CCCN(C)CC5)c(C(F)(F)F)c4)sc3c2)ccn1 | active
* CN1C(=O)N(C)C2C1NN=c1s/c(=C\c3ccccn3)c(=O)n12 (centres undefined) | inactive
* Oc1ccc(CSc2nnc(-c3ccc(Oc4ccccc4)cc3)n2-c2ccccc2)c2cccnc12 | inactive

----------
System: NCI-H322M lung
Assay: NCI-60 one-dose screen, 48 h (100 = growth as untreated, 0 = no growth, -100 = all killed)
Settings: 10 µM unless noted
This is part of a sample that, as a whole, favours compounds with a hit. Of some 83,000 tested, about 20% had one in any assay.
Recorded growth, one value per entry.
ASSAY_METRIC: growth (%)

- O=C(Cn1cc(CN2C(=O)c3ccc([N+](=O)[O-])cc3C2=O)nn1)Nc1ccccc1Br: 98.2
- O=C(O)c1ccc(-n2cc(CNc3ccc(Cl)cc3)c(-c3ccc(F)cc3)n2)cc1: 95.5
- O=C(Nc1ccc(-c2nc(-c3cccc(O)c3)c(-c3ccnc(Br)c3)[nH]2)cc1)c1ccccc1: 37.3
- O=C(c1cccc(F)c1)n1ccc2cc(NC(=S)Nc3cccnc3)ccc21: 99
- CCOC(=O)C1=C(C)Nc2nc3ccccc3n2C1c1cccc(Br)c1 (stereo not given): 97.6
- Cn1c(SC(C(=O)Nc2ccc(F)cc2)c2ccccc2)nc2ccccc2c1=O (stereo not given): 111
- COc1ccc(-c2no[n+]([O-])c2Nc2ccccc2Br)cc1: 96.8
- COc1ccc(OC)c(NC2=C(Cl)C(=O)C(C)=C(C)C2=O)c1: 103
- N/C(=N\c1nc2ccc([N+](=O)[O-])cc2s1)C(Cl)(Cl)Cl: 10.5
- CCCCCCNC(=O)Oc1ccc(/C(=C(\C)c2ccc(Cl)cc2)c2ccc(OCCN(C)C)cc2)cc1: 78.1
